The reported measurements were obtained from ChEMBL document CHEMBL1158354.

- test summary: Antagonist activity at voltage dependent L-type calcium channel in New Zealand white rabbit sigmoid colon circular smooth muscle strip assessed as relaxation response
- Type: functional, Oryctolagus cuniculus
measurement label: pD2
Write the number on its own, no unit after it.

Check out these entries, answers already filled in.
# compound, pD2
measured = [
    ("COC(=O)C1=C(C)NC(C)=C(C(=O)OC)C1c1ccccc1[N+](=O)[O-]", 6.92),
    ("COCCOC(=O)C1=C(C)NC2=C(C(=O)CC(C)(C)C2)C1c1cc(C(F)(F)F)cc(Cl)c1F (configuration not stated)", 5.11),
    ("COCCOC(=O)C1=C(C)NC2=C(C(=O)C(C)(C)CC2)C1c1cc(C(F)(F)F)cc(Cl)c1F (configuration not stated)", 4.89),
]

Would you kindly look at the next entry?
stdin: So what does the record say about pD2 for COC(=O)C1=C(C)NC2=C(C(=O)CC(C)(C)C2)C1c1cc(C(F)(F)F)cc(Cl)c1F (configuration not stated) ?
stdout: 4.84

###

- test summary: Antagonist activity at voltage dependent L-type calcium channel in New Zealand white rabbit sigmoid colon circular smooth muscle strip assessed as relaxation response
- Assay type: functional, Oryctolagus cuniculus
measurement label: pD2

# compound, pD2
data = [
    ("CCOC(=O)C1=C(C)NC2=C(C(=O)CC(C)(C)C2)C1c1cc(C(F)(F)F)cc(Cl)c1F (stereo not drawn)", 4.74),
    ("CCOC(=O)C1=C(C)NC2=C(C(=O)C(C)(C)CC2)C1c1cc(C(F)(F)F)cc(Cl)c1F (stereo not drawn)", 5.06),
]

Now look at this entry.
stdin: Quick one: pD2 of COC(=O)C1=C(C)NC2=C(C(=O)C(C)(C)CC2)C1c1cc(C(F)(F)F)cc(Cl)c1F (stereo not drawn) ?
stdout: 4.94
